- test_name: in vitro
- Type: cell-based
- experimental_setup: human, HepG2 or HepG2.117 cells, ATPlite, 3-days incubation (not marked with *), mean value
Examples of molecules with documented CC50 at 3 days follow.

| molecule | CC50 at 3 days |
| --- | --- |
| CNC(=O)c1ccc(-n2c(NC(C)C)nc3c(c2=O)C[C@@H](C)N(C(=O)c2ccc(F)c(C(F)F)c2)C3)cc1 [Compound C634] | > 50 µM |
| CNC(=O)c1ccc(-n2c(NC(C)C)nc3c(c2=O)C[C@@H](C)N(C(=O)c2[nH]nc(C(F)(F)F)c2C)C3)cc1 [Compound C493] | > 50 µM |
| CNC(=O)c1ccc(-n2c(NCc3nnn(C)c3C(F)F)nc3c(c2=O)C[C@@H](C)N(C(=O)c2ccc(Cl)c(Cl)c2)C3)cc1 [Compound C552] | > 50 µM |
| CNC(=O)c1ccc(-n2c(NC(C)C)nc3c(c2=O)C[C@@H](C)N(C(=O)c2cc4c(F)cccc4[nH]2)C3)cc1 [Compound C505] | 25.6 µM |
| CNC(=O)c1ccc(-n2c(NC(C)C)nc3c(c2=O)C[C@@H](C)N(C(=O)c2cc4ccc(OC)cc4n2C)C3)cc1 [Compound C516] | > 50 µM |
| CNC(=O)c1ccc(-n2c(NC(C)C)nc3c(c2=O)C[C@@H](C)N(C(=O)c2cc(F)c(Br)c(F)c2)C3)cc1 [Compound C519] | > 50 µM |
| CCc1cc(C(=O)NC)ccc1-n1c(NC(C)C)nc2c(c1=O)C[C@@H](C)N(C(=O)c1ccc(Cl)c(Cl)c1)C2 (single isomer, unassigned) [Compound C383a] | > 50 µM |
| C[C@H](Nc1nc2c(c(=O)n1-c1ccc(-n3cccn3)cc1)C[C@@H](C)N(C(=O)c1ccc(Cl)c(Cl)c1)C2)c1ccc(C(F)(F)F)cc1 [Compound C532] | > 50 µM |
| CNC(=O)C12C3C4C1C1C2C3C41n1c(NC(C)C)nc2c(c1=O)C[C@@H](C)N(C(=O)c1ccc(Cl)c(Cl)c1)C2 (some centres unmarked) [Compound C456] | > 50 µM |
| CNC(=O)c1ccc([C@H](C)Nc2nc3c(c(=O)n2-c2ccc(NC(C)=O)cc2)C[C@@H](C)N(C(=O)c2ccc(Cl)c(Cl)c2)C3)cc1 (single isomer, unassigned) [Compound C528b] | > 50 µM |
| CNC(=O)c1ccc(-n2c(N[C@H](C)c3ccc(OC(F)(F)F)cc3)nc3c(c2=O)C[C@@H](C)N(C(=O)c2ccc(Cl)c(Cl)c2)C3)cc1 (single isomer, unassigned) [Compound C440a] | 25 µM |
| CNC(=O)c1ccc(-n2c(NC(C)C)nc3c(c2=O)C[C@@H](C)N(C(=O)c2ccc4cncc(Br)c4c2)C3)cc1 [Compound C491] | > 50 µM |
| CNC(=O)c1ccc(-n2c(NC(C)C)nc3c(c2=O)C[C@@H](C)N(C(=O)c2ccc(Br)c(F)c2C)C3)cc1 [Compound C581] | > 50 µM |
| CNC(=O)c1ccc(-n2c(N[C@@H](C)c3cccc(OC)c3)nc3c(c2=O)C[C@@H](C)N(C(=O)c2ccc(Cl)c(Cl)c2)C3)cc1 (single isomer, unassigned) [Compound C394b] | 29 µM |
| CNC(=O)c1ccc(-n2c(NC(C)C)nc3c(c2=O)C[C@@H](C)N(C(=O)c2cc(F)c(C(F)(F)F)c(F)c2)C3)cc1 [Compound C476] | > 50 µM |
| CNC(=O)c1ccc(-n2c(N[C@H](C)c3ccc(C(F)(F)F)cc3)nc3c(c2=O)C[C@@H](C)N(C(=O)c2ccc(Cl)c(Cl)c2)C3)cc1 (single isomer, unassigned) [Compound C413a] | 9 µM |
| CNC(=O)c1ccc(-n2c(NC(C)Cn3cncn3)nc3c(c2=O)C[C@@H](C)N(C(=O)c2ccc(Cl)c(Cl)c2)C3)cc1 (some centres unmarked) [Compound C540] | > 50 µM |
| CNC(=O)c1ccc(-n2c(NC(C)c3ccc(C(F)(F)F)s3)nc3c(c2=O)C[C@@H](C)N(C(=O)c2ccc(Cl)c(Cl)c2)C3)cc1 (some centres unmarked) [Compound C596] | 25.5 µM |
| CNC(=O)c1ccc(-n2c(NCc3cc(C(F)F)no3)nc3c(c2=O)C[C@@H](C)N(C(=O)c2ccc(Cl)c(Cl)c2)C3)cc1 [Compound C554] | > 50 µM |
| CNC(=O)c1ccc(-n2c(N[C@H]3CCC34CCC4)nc3c(c2=O)C[C@@H](C)N(C(=O)c2ccc(Cl)c(Cl)c2)C3)cc1 (single isomer, unassigned) [Compound C346b] | > 50 µM |
| CNC(=O)c1ccc(-n2c(N3CCCCCC3)nc3c(c2=O)C[C@@H](C)N(C(=O)c2ccc(Cl)c(Cl)c2)C3)cc1 [Compound C467] | 30 µM |
| CNC(=O)c1ncc(-n2c(N[C@@H](C)c3ccc(OC(F)(F)F)cc3)nc3c(c2=O)C[C@@H](C)N(C(=O)c2ccc(Cl)c(Cl)c2)C3)n1C [Compound C620] | > 50 µM |
| CC(C)Nc1nc2c(c(=O)n1-c1ccc(C(=O)NC3CC3)cc1Cl)C[C@@H](C)N(C(=O)c1ccc(Cl)c(C(F)(F)F)c1)C2 (single isomer, unassigned) [Compound C673a] | > 25 µM |

Data origin, for the record: patent US20230091047A1
